Target: Protein deacetylase HDAC6 (Homo sapiens)
Sequence (Q9UBN7 whole entry): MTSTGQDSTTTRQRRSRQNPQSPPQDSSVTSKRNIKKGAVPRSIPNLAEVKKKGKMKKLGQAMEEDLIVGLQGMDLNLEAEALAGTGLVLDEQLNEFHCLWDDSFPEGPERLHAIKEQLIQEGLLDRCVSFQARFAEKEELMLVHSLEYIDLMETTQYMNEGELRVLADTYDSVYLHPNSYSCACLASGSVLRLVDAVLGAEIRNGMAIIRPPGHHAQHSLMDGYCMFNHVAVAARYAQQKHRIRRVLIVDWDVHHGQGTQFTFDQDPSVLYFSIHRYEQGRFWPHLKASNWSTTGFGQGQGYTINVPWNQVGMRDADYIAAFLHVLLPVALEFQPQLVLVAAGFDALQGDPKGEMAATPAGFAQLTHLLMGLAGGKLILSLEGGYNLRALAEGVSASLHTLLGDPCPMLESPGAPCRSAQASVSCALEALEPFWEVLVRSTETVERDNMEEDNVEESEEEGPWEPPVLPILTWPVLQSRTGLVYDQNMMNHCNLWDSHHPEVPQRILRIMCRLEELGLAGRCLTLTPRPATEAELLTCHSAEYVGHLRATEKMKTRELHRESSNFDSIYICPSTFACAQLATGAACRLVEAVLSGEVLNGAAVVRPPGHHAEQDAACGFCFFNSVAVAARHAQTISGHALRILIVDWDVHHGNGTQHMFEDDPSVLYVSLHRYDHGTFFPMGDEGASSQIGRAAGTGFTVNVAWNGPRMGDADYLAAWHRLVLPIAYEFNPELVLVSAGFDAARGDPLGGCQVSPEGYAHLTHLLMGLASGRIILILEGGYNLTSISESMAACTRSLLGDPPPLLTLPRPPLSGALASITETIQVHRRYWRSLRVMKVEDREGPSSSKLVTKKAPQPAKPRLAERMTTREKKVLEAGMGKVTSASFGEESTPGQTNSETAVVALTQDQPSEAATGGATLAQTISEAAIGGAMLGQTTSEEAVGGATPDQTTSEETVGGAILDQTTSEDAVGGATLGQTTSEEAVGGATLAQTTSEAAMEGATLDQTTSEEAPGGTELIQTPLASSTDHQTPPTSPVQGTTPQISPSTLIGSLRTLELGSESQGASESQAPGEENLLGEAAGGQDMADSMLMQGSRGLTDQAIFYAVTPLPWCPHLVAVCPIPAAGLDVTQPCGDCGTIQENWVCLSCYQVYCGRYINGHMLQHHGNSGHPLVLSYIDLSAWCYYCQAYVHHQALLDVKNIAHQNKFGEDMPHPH
Experiment: Inhibition of HDAC6
measured-attribute: IC50 (nM)

| smiles-repr | measured-attribute | numeric-result |
| --- | --- | --- |
| CC(C)(C)c1ccc(-c2noc(-c3ccc(C(=O)C(F)(F)F)s3)n2)cc1 | IC50 | 3540 |
| O=C(c1ccc(-c2nc(-c3ccc(Cl)cc3Cl)no2)s1)C(F)(F)F | IC50 | 3000 |
| O=C(c1ccc(-c2nc(Cc3cccs3)no2)s1)C(F)(F)F | IC50 | 170 |

P = O=C(c1ccc(-c2nc(-c3ccc(F)cc3F)no2)s1)C(F)(F)F
Q = O=C(c1ccc(-c2nc(-c3cccc(C(F)(F)F)c3)no2)s1)C(F)(F)F
R = CS(=O)(=O)Cc1noc(-c2ccc(C(=O)C(F)(F)F)s2)n1
Reorder the items by IC50, least to greatest. Write the labels, ordered according to the request.
R, P, Q
(R: 320 nM, P: 580 nM, Q: 2450 nM)

1 = O=C1COc2ccccc2N1Cc1noc(-c2ccc(C(=O)C(F)(F)F)s2)n1
2 = O=C(c1ccc(-c2nnc(-c3cccs3)o2)s1)C(F)(F)F
3 = O=C(c1ccc(-c2nc(-c3ccc(F)cc3)no2)s1)C(F)(F)F
4 = O=C(c1ccc(-c2nc(-c3ccc(C(F)(F)F)cc3)no2)s1)C(F)(F)F
Returns the items ordered by IC50, from maximum to minimum. A complete answer lists every label in the requested sequence.
4, 1, 3, 2
(4: 11000 nM, 1: 410 nM, 3: 270 nM, 2: 160 nM)

P = O=C(c1ccc(-c2nc(CS(=O)(=O)c3cccs3)no2)s1)C(F)(F)F
Q = O=C(c1ccc(-c2nc(-c3cccnc3)no2)s1)C(F)(F)F
Lower value for measured IC50? Options: P , Q // caller expects the label of the chosen entry
P

P = O=C(c1ccc(-c2nc(-c3ccccn3)no2)s1)C(F)(F)F
Q = CCCS(=O)(=O)Cc1noc(-c2ccc(C(=O)C(F)(F)F)s2)n1
Sorting by IC50 in descending order, would P or Q appear first? Give the label of your selection.
P
(P: 500 nM, Q: 240 nM)

a = Cc1noc(-c2ccc(C(=O)C(F)(F)F)s2)n1
b = O=C(NCc1ccccc1)c1ccc(C(=O)C(F)(F)F)s1
# compare IC50 for a vs b ; return the one with the smaller value Answer by quoting the chosen item's label.
b
(b: 370 nM, a: 650 nM)

Values were extracted from ChEMBL document CHEMBL1152136.
